// reported IC50 for each item listed
test_target: hCB2R (human CB2R) (Homo sapiens, UniProt P34972)
Construct: full-length receptor stably expressed in CHO cells
Sequence (P34972 whole entry): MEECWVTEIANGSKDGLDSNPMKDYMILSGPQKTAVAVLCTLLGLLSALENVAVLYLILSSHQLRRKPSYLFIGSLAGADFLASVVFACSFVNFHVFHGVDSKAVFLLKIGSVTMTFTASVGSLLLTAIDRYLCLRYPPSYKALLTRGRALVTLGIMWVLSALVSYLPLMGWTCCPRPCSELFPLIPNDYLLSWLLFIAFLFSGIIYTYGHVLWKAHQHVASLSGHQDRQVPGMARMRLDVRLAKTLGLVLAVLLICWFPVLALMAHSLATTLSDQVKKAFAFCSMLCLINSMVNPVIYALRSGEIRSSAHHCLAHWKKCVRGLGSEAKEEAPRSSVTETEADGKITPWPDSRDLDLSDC
assay_overview: forskolin-stimulated cAMP accumulation, antagonism

{"molecule": "C=C[C@@H](/C=C/c1ccc(O)cc1)c1ccc(O)cc1 [trans-hinokiresinol]", "reading_unit": "µM", "IC50": 20.5}
{"molecule": "C=C[C@@H](/C=C\\c1ccc(O)cc1)c1ccc(O)cc1 [cis-hinokiresinol]", "reading_unit": "µM", "IC50": 72.5}

###

test_target: CB1R (U2 OS cells, reporter gene assay) (Homo sapiens, UniProt P21554)
Construct: receptor stably expressed in U2 OS cells
Sequence (P21554 whole entry): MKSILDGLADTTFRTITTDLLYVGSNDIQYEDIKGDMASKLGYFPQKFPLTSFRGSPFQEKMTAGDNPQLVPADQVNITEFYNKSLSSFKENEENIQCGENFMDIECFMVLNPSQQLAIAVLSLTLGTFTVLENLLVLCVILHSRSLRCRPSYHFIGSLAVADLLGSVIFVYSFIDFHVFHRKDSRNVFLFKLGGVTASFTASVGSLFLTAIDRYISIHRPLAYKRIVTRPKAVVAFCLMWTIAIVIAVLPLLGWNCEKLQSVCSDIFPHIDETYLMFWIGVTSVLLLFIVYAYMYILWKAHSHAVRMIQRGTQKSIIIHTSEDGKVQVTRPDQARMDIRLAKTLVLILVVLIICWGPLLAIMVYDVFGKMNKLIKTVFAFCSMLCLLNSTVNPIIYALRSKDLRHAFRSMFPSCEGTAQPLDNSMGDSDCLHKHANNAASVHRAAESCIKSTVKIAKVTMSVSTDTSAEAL
assay_overview: SRE-luciferase reporter gene assay, antagonism

{"compound": "C=C[C@@H](/C=C/c1ccc(O)cc1)c1ccc(O)cc1 [trans-hinokiresinol]", "IC50 (µM)": 10.2}
{"compound": "C=C[C@@H](/C=C\\c1ccc(O)cc1)c1ccc(O)cc1 [cis-hinokiresinol]", "IC50 (µM)": 11.2}
